- Tested on: OVCAR-8
- experimentalProtocol: Anticancer activity against human OVCAR8 cells assessed as cell growth at 10 uM after 48 hrs by sulforhodamine B assay relative to control
- Assay type: functional
- assayContext: OVCAR-8, 48 h, read-out: Activity
readoutKind: growth at 10 µM (%)
API: value field is a number in %; no unit string.

Would you please look over these solved cases?
>  <compound>
C=C1CC[C@@H]2[C@](C)(COC(C)=O)[C@H](OC(C)=O)CC[C@@]2(C)[C@H]1CC(Nc1ccc(S(=O)(=O)Nc2cc(C)on2)cc1)C1=CCOC1=O (stereo partly drawn)

>  <valueUnit>
%

>  <growth at 10 µM>
16.1

$$$$
>  <compound>
C=C1CC[C@@H]2[C@](C)(COC(C)=O)[C@H](OC(C)=O)CC[C@@]2(C)[C@H]1CC(Nc1ccc(S(=O)(=O)Nc2ccc(Cl)nn2)cc1)C1=CCOC1=O (stereo partly drawn)

>  <valueUnit>
%

>  <growth at 10 µM>
16.9

$$$$

Give me measured growth at 10 µM, please, for this compound: C=C1CC[C@@H]2[C@](C)(COC(C)=O)[C@H](OC(C)=O)CC[C@@]2(C)[C@H]1CC(Nc1ccc(S(=O)(=O)Nc2nccs2)cc1)C1=CCOC1=O (stereo partly drawn)
4.39
